METHOD_NOTES: recombinant UMI read abundance after kanamycin selection (control-corrected) (log10(CPM+1)); higher = more efficient recombination; extreme values may be limits of the assay; sequences stand for … in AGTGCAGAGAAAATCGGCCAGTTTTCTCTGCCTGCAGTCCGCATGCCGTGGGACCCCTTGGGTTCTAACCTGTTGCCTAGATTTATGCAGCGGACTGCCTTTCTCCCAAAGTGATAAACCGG…AGGTTGGTTTCACT; site = the 11-nt donor;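 further: IS621 bridge recombinase in Escherichia coli cells against a fixed T5 target plasmid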
recombinant UMI read abundance (log10) values, listed per item
READOUT_NAME: recombinant UMI read abundance (log10)

>>> reported("CGGAATGCATGGACCGGTTTTCCCGGTAATCCGTATTTGTG (site CGGAATGCTCA)")
2.58
>>> reported("GTAGTTGCATGGACCGGTTTTCCCGGTAATCCGTATTTGCG (site GTAGTTGCTCG)")
2.88
>>> reported("CGGTTGGCATGGACCGGTTTTCCCGGTAATCCGTATTTGCT (site CGCTTGGCTAG)")
0.00834
>>> reported("GTTCGAGCATGGACCGGTTTTCCCGGTAATCCGTATTTGCT (site GTTCGAGCTGG)")
0.928
>>> reported("CGTATGGCATGGACCGGTTTTCCCGGTAATCCGTATTTGCT (site CGTCTGGCTAG)")
0
>>> reported("CAAGCGCCATGGACCGGTTTTCCCGGTAATCCGTATTTGTG (site CAAGCGCCTAA)")
0.00762
>>> reported("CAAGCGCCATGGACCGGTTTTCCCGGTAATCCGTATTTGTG (site TAAGCGCCTCA)")
0.0306
>>> reported("CCACGAACATGGACCGGTTTTCCCGGTAATCCGTATTTGTC (site CCACGAACTGA)")
0.774
>>> reported("CAGGAAACATGGACCGGTTTTCCCGGTAATCCGTATTTGCA (site CAGGAAACTTG)")
1.79
>>> reported("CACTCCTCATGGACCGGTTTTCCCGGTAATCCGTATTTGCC (site CACTCCCCTGG)")
0.105
>>> reported("CATGCACCATGGACCGGTTTTCCCGGTAATCCGTATTTGAC (site CATGCACCTGT)")
0
>>> reported("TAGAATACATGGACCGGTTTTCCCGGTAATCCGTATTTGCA (site TAGATTACTTG)")
0.00714
>>> reported("ATGGTGTCATGGACCGGTTTTCCCGGTAATCCGTATTTGCT (site ATGGTGTCTAG)")
3.4
>>> reported("GTTGTGGCATGGACCGGTTTTCCCGGTAATCCGTATTTGAG (site GTTGTGGCTCT)")
1.71
>>> reported("TCCGGTGCATGGACCGGTTTTCCCGGTAATCCGTATTTGCC (site TCCGGTGCTGG)")
0
>>> reported("GGGGCACCATGGACCGGTTTTCCCGGTAATCCGTATTTGCT (site GGGGCACCTTG)")
0
>>> reported("AGCTCATCATGGACCGGTTTTCCCGGTAATCCGTATTTGGG (site AGCTCATCTCC)")
0.833
>>> reported("AACTTGGCATGGACCGGTTTTCCCGGTAATCCGTATTTGGA (site GACTTGGCTTC)")
0.439

###

The following sequences are listed with their measured recombinant UMI read abundance (log10) values.
METHOD_NOTES: recombinant UMI read abundance after kanamycin selection (control-corrected) (log10(CPM+1)); higher = more efficient recombination; extreme values may be limits of the assay; sequences stand for … in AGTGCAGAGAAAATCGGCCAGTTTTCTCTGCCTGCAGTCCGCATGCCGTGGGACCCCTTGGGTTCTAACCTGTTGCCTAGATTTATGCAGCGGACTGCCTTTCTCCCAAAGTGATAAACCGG…AGGTTGGTTTCACT; site = the 11-nt donor
READOUT_NAME: recombinant UMI read abundance (log10)

>>> reported("AGGAAAACATGGACCGGTTTTCCCGGTAATCCGTATTTGGG (site AGGAAAACTCC)")
0.592
>>> reported("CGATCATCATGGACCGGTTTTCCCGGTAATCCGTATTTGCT (site CGGTCATCTAG)")
0
>>> reported("ATTGAGACATGGACCGGTTTTCCCGGTAATCCGTATTTGGC (site ATTGAGACTCC)")
0.38
>>> reported("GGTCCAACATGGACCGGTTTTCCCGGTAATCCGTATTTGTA (site GGTCCAACTTG)")
0.016
>>> reported("TAGGAAACATGGACCGGTTTTCCCGGTAATCCGTATTTGCG (site TAGGAAGCTCG)")
2.11
>>> reported("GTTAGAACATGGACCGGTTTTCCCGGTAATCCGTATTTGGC (site ATTAGAACTGC)")
0
>>> reported("CTGGAGTCATGGACCGGTTTTCCCGGTAATCCGTATTTGCC (site CGGGAGTCTGG)")
0
>>> reported("CGTTAGACATGGACCGGTTTTCCCGGTAATCCGTATTTGAC (site CGTTAGACTAT)")
0.0518
>>> reported("AAACGAGCATGGACCGGTTTTCCCGGTAATCCGTATTTGAG (site AAACGAGCTCT)")
1.78
